Every entry's value here was drawn from BindingDB's records for doi:10.1021/jm010244+.

Biological target: plasmin (Homo sapiens)
Experiment: The compound was tested for inhibition of human plasmin
Here, each record is paired with measured pKi data.
Recall that pKi is obtained by taking minus log10 of the concentration measured in molar.

| TEST_SMILES | TARGET_SYSTEM | pKi |
| --- | --- | --- |
| N=C(N)c1ccc2[nH]c(-c3cccc(-c4ccccc4)c3O)cc2c1Cl | plasmin (Homo sapiens) | 5.52 |

pKi measured on Cc1cc2[nH]c(-c3cccc(-c4ccccc4)c3O)cc2cc1C(=N)N = 6.68
